The origin of these recorded values is ChEMBL document CHEMBL4196131.

target: Estrogen receptor (Homo sapiens) (UniProt P03372); assay: Antagonist activity at human ERalpha expressed in HEK293T cells after 24 hrs by ERE-based dual luciferase reporter gene assay relative to E2; format: cell-based
Sequence (P03372 whole entry): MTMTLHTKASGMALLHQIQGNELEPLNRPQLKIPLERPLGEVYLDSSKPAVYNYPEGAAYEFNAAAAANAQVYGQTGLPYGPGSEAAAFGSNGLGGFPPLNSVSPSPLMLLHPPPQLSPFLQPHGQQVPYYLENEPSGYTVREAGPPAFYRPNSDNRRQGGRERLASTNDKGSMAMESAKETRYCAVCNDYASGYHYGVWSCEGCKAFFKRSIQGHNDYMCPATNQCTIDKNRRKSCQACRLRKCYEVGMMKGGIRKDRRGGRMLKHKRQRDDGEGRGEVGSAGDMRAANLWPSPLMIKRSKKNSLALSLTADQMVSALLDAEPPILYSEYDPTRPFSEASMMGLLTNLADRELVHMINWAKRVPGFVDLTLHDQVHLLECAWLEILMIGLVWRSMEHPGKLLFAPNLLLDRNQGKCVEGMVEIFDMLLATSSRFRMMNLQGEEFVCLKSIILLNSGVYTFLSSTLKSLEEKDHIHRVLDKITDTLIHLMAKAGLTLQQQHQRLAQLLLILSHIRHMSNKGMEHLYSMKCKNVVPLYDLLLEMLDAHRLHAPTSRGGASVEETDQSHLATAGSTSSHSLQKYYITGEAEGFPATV

| Compound | Efficacy / % |
| --- | --- |
| O=S(=O)(Oc1ccccc1)C1CC2OC1C(c1ccc(/C=C/c3cc(O)cc(O)c3)cc1)=C2c1ccc(O)cc1 (centres undefined) | 4 |
| O=S(=O)(Oc1ccc(Br)cc1)C1CC2OC1C(c1ccc(/C=C/c3cc(O)cc(O)c3)cc1)=C2c1ccc(O)cc1 (centres undefined) | 15 |
| COc1cccc(OS(=O)(=O)C2CC3OC2C(c2ccc(/C=C/c4cc(O)cc(O)c4)cc2)=C3c2ccc(O)cc2)c1 (centres undefined) | 36 |
| O=S(=O)(Oc1ccc(O)cc1)C1CC2OC1C(c1ccc(/C=C/c3cc(O)cc(O)c3)cc1)=C2c1ccc(O)cc1 (centres undefined) | 8 |
| COc1cc(/C=C/c2ccc(OS(=O)(=O)[C@@H]3C[C@@H]4O[C@H]3C(c3ccc(O)cc3)=C4c3ccc(O)cc3)cc2)cc(OC)c1 | 11 |
| O=S(=O)(Oc1ccc(-c2ccccc2)cc1)C1CC2OC1C(c1ccc(/C=C/c3cc(O)cc(O)c3)cc1)=C2c1ccc(O)cc1 (centres undefined) | 68 |
| COc1cc(/C=C/c2ccc(C3=C(c4ccc(O)cc4)C4CC(S(=O)(=O)Oc5ccccc5)C3O4)cc2)cc(OC)c1 (centres undefined) | 89 |
| Cc1cccc(OS(=O)(=O)C2CC3OC2C(c2ccc(/C=C/c4cc(O)cc(O)c4)cc2)=C3c2ccc(O)cc2)c1 (centres undefined) | 2 |
| O=S(=O)(Oc1cccc(Br)c1)C1CC2OC1C(c1ccc(/C=C/c3cc(O)cc(O)c3)cc1)=C2c1ccc(O)cc1 (centres undefined) | 21 |
| O=S(=O)(Oc1cccc(O)c1)C1CC2OC1C(c1ccc(/C=C/c3cc(O)cc(O)c3)cc1)=C2c1ccc(O)cc1 (centres undefined) | 17 |
| COc1cc(/C=C/c2ccc(C3=C(c4ccc(O)cc4)C4CC(S(=O)(=O)Oc5cccc(OC)c5)C3O4)cc2)cc(OC)c1 (centres undefined) | 32 |
| COc1cc(/C=C/c2ccc(OS(=O)(=O)[C@H]3C[C@H]4O[C@@H]3C(c3ccc(O)cc3)=C4c3ccc(O)cc3)cc2)cc(OC)c1 | 72 |
| CCc1ccccc1OS(=O)(=O)C1CC2OC1C(c1ccc(/C=C/c3cc(OC)cc(OC)c3)cc1)=C2c1ccc(O)cc1 (centres undefined) | 37 |
| COc1cc(/C=C/c2cccc(OS(=O)(=O)C3CC4OC3C(c3ccc(O)cc3)=C4c3ccc(O)cc3)c2)cc(OC)c1 (centres undefined) | 47 |
